# target of assay: HIF prolyl hydroxylase
# assay summary: Inhibition of the activity of HIF prolyl hydroxylase (VBC complex binding to hydroxylated peptide substrate)
# test parameters: cell lysate containing prolyl hydroxylase, biotin-DLDLEMLAPYIPMDDDFQL peptide substrate
Counter-ions that a name gives are not always drawn.
Each item that follows carries a reported IC50.

- molecule: "O=C(NCc1ccnc(-n2[nH]cc(-c3cccnc3)c2=O)c1)c1ccccc1 [Example 48, hydrochloride]"
  IC50 (nM): 1900
- molecule: "CC(=O)NCc1ccnc(-n2[nH]cc(-c3cccnc3)c2=O)c1 [Example 47, hydrochloride]"
  IC50 (nM): 2200
- molecule: "O=c1c(-c2cccnc2)c[nH]n1-c1ccccn1"
  IC50 (nM): 430
- molecule: "NCc1ccnc(-n2[nH]cc(-c3cccnc3)c2=O)c1 [Example 35, dihydrochloride]"
  IC50 (nM): 2300
